From: the supplement of paper PMC10567573

B1: TRIM15 (parent)
chain: LLARLRELEQQIWKERDEYITKVS

Variants of: B1
assay_details: protein stability index of a GFP-peptide fusion (GPS, HEK-293T) (PSI 1-6); higher = more stable;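 also: lentivirally expressed fusions sorted by FACS into six bins by GFP to DsRed ratio, PSI derived from sequencing read proportions per bin multiplied by bin number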
details: c terminus: a fixed tail appended
quantity_name: protein stability index
Answers are plain numbers.

Observe how each entry below is paired with its result.
residue_change: E9D
protein stability index: 3.17

residue_change: Q11P
protein stability index: 1.62

residue_change: I12E
protein stability index: 2.38

residue_change: L1R
protein stability index: 1.87

residue_change: L8C
protein stability index: 1.49

residue_change: L8W
protein stability index: 1.62

residue_change: R4F
protein stability index: 1.73

residue_change: K14T
protein stability index: 2.85

residue_change: W13A
protein stability index: 1.52

residue_change: L5G
protein stability index: 2.6

Okay, now this variant:
Query (variant): I20M ; field requested: protein stability index
1.71
